B1: TPR t1 (parent)
chain: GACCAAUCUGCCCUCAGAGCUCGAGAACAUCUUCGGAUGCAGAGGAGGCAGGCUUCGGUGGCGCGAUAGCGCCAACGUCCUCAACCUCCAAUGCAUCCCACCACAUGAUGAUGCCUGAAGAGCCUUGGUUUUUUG

Variants of: B1
Test: polymerase ribozyme fitness, log enrichment relative to wild type (log ratio); higher = more active; in vitro selection for triplet polymerase activity
Known polymerase ribozyme fitness (log ratio) of a selection of variants
Number only, please.

{"columns": ["BIOSEQUENCE", "polymerase ribozyme fitness (log ratio)"],
 "data": [
  ["GACCAAUCUGCCCUCAGAGCUCGAGAACAUCUUCGAAUGCAGAAGAGGCAGGCUUCGGUGGCGCGAUAGCGCCAACUUCCUCAUCCUCCAAUGCAUCCCACCACAUGAUGAUGCCUGAAGAGCCUUGGUUUUUUG [G36A G44A G77U A84U]", -2.98]
]}

Exercise: So what's the measured polymerase ribozyme fitness (log ratio) for this one? GACCAAUCUGCGCUCAGAGCUCGAGAACAUCUUGGGAUGCAGAGGAGGCAGGCUUCGGUGGCGCGAUAUCGCCAACGUCCUCCACCUCCAAUGCAUCCCACCACAUGAUGAUGCCUGAAGAGCCUUGGUUUUUUG [C12G C34G G69U A83C]
Solution: -3.04

Exercise: And then GACCAAUCUGCCCUCAGAGCUCGAGAACAUCUUCGGAUGCAGAGGAGGCAGGCUUCGGUGGCACGAUAGCGCCAACGUCCUCAACCUCCAAUGCAUCCCACCACAUGAUGAUGCCUGAAAAGCCUUGGUUUUUUG [G63A G120A] , what is it?
Solution: -0.19

Exercise: Proceed to GACCAAUCUGCCCUCAGAGCUCGAGAACAUCUUCGGAUGCAGAGGAGGCAGGCUUCGGUGGCGCGAUAGCGCCAACGUCCUCAACCUCCAAUGCAUCCCAUCACAUCAUGAUGCCUGAAGAGCCUUGGUUUUUUG [C101U G107C]
Solution: -6.63
